assay-remarks: Approximate solubilities of A-type crystals of MRE-0094 in test solvents
Type: physicochemical
measurement-parameters: organic solvent or mixture, thermodynamic from solid; IPA, RT
quantity-measured: solubility (µg/mL)
Number in µg/mL, nothing else.

Challenge: # get_value(readout='solubility', item= Nc1nc(OCCc2ccc(Cl)cc2)nc2c1ncn2[C@@H]1O[C@H](CO)[C@@H](O)[C@H]1O [A-type crystal form, 2-[2-(4-chlorophenyl)ethoxy]adenosine] )
Response given: 4000

---

assay-remarks: Approximate solubilities of A-type crystals of MRE-0094 in test solvents
Type: physicochemical
measurement-parameters: organic solvent or mixture, thermodynamic from solid; EtOH, RT
quantity-measured: solubility (µg/mL)
Number in µg/mL, nothing else.

Challenge: # get_value(readout='solubility', item= Nc1nc(OCCc2ccc(Cl)cc2)nc2c1ncn2[C@@H]1O[C@H](CO)[C@@H](O)[C@H]1O [A-type crystal form, 2-[2-(4-chlorophenyl)ethoxy]adenosine] )
Response given: 7000

Ref: patent US20100324279A1
